# SUBJECT OF TEST: Nav1.7 voltage-gated sodium channel (Homo sapiens)
# Construct: Gene(s) encoding the full-length protein of the voltage-gated sodium channel of interest are cloned and expressed; expressed in transfected cells
# ASSAY INFO: Whole-cell voltage clamp electrophysiology assay
# Type: cell-based
# ASSAY SETUP: cells stably expressing the voltage-gated sodium channel of interest
Lab note: anything with IC50 below 300 nM is marked true; values at 300 nM or higher are marked false.

Would you please look over these solved cases?
COMPOUND | ANSWER LABEL
Cc1ncc(-c2cccc3c2C[C@H](NC(=O)c2ccc(OCC4CCCO4)nc2)CC3)cn1 (some centres unmarked) [Example 161] | false
COc1ncc(-c2cccc3c2C[C@H](NC(=O)c2ccc(OC(C)C)nc2)CO3)cn1 [Example 55] | false

In: Identify whether the compound O=C(N[C@@H]1CCc2cccc(-c3cccnc3F)c2C1)c1ccc(OCC(F)(F)F)nc1 [Example 87] records IC50 below 300 nM.
Out: true

In: Identify whether the compound O=C(N[C@@H]1COc2cccc(-c3ccc(CO)nc3)c2C1)c1ccc(OCC(F)(F)F)nc1 [Example 212] records IC50 below 300 nM.
Out: true

In: Identify whether the compound O=C(N[C@@H]1COc2cccc(-c3cnc(C4CC4)nc3)c2C1)c1ccc(OCCCF)nc1 [Example 96] records IC50 below 300 nM.
Out: true

In: Identify whether the compound CC(C)Oc1ncc(C(=O)N[C@@H]2COc3cccc(-c4ccncc4)c3C2)cn1 [Example 36] records IC50 below 300 nM.
Out: false

In: Identify whether the compound CC(C)Oc1cnc(C(=O)N[C@@H]2COc3cccc(-c4cccnc4)c3C2)cn1 [Example 42] records IC50 below 300 nM.
Out: false

In: Identify whether the compound O=C(N[C@@H]1COc2cccc(-c3ccncc3)c2C1)c1ccc(OCC(F)(F)F)nc1 [Example 18] records IC50 below 300 nM.
Out: true

In: Identify whether the compound Cc1cc(-c2cccc3c2C[C@H](NC(=O)c2ccc(OC4CCCOC4)nc2)CO3)cnc1F (some centres unmarked) [Example 151] records IC50 below 300 nM.
Out: true

In: Identify whether the compound COc1ccc(-c2cccc3c2C[C@H](NC(=O)c2cnc(OCCC(F)(F)F)cn2)CO3)cn1 [Example 48] records IC50 below 300 nM.
Out: false

In: Identify whether the compound CCCCn1ccc(C(=O)N[C@@H]2COc3cccc(-c4cnc(OC)nc4)c3C2)cc1=O [Example 150] records IC50 below 300 nM.
Out: false

In: Identify whether the compound O=C(N[C@@H]1COc2cccc(-c3cccnc3)c2C1)c1ccc(OCC2CCO2)nc1 (some centres unmarked) [Example 139] records IC50 below 300 nM.
Out: false

###

Below, each entry is listed with its recorded IC50.
# SUBJECT OF TEST: Nav1.7 voltage-gated sodium channel (Homo sapiens, UniProt Q15858)
# Construct: Gene(s) encoding the full-length protein of the voltage-gated sodium channel of interest are cloned and expressed
# Sequence (Q15858 whole entry): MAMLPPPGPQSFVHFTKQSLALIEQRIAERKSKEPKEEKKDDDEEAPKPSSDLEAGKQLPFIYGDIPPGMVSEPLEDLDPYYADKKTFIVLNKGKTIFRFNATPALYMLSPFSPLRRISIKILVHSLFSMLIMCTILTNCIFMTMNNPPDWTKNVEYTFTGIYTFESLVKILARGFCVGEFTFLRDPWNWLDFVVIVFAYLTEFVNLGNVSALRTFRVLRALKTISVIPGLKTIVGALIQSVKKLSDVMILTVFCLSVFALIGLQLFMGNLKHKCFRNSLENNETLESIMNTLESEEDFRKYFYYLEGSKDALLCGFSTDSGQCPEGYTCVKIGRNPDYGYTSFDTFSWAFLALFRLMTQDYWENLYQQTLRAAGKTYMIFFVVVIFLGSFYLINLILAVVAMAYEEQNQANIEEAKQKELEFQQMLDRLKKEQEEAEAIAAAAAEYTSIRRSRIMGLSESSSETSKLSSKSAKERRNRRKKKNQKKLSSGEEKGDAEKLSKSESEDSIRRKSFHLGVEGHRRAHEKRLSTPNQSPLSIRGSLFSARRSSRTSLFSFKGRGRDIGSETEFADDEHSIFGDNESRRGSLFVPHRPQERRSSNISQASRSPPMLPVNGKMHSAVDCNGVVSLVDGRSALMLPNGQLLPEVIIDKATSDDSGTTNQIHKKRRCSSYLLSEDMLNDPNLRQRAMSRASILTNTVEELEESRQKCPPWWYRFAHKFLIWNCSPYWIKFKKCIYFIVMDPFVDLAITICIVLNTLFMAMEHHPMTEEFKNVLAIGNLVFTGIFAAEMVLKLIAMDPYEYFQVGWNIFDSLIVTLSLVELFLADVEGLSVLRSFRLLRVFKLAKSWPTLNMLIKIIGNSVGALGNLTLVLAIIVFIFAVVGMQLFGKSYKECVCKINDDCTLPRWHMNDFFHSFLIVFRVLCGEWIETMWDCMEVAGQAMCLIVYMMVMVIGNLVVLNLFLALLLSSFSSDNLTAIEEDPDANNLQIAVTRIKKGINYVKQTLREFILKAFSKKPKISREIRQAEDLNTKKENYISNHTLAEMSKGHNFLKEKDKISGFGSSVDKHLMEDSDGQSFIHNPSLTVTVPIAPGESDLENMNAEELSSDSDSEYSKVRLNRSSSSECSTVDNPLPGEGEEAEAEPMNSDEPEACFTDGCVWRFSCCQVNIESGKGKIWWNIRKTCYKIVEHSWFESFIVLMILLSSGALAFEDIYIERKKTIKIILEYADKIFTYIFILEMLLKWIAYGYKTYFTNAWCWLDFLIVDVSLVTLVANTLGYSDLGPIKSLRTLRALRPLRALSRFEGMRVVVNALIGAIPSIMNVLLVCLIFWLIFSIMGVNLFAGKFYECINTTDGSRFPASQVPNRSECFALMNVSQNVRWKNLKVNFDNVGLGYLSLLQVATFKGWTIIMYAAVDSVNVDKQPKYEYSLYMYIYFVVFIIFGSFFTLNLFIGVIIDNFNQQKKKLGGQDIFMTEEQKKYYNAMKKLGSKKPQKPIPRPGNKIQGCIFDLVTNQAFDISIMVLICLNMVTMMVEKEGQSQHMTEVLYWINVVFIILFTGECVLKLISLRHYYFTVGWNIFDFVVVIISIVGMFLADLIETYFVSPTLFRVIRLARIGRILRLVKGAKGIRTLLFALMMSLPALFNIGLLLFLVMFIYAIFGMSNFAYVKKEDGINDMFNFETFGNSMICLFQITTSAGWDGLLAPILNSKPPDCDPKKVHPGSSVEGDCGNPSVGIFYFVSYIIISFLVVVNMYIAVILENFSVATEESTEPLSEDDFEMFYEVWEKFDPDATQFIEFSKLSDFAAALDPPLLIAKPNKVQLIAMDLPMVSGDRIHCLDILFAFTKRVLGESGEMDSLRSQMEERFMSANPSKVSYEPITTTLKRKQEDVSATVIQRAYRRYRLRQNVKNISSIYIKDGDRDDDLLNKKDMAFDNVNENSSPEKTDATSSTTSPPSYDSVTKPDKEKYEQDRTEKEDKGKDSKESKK
# ASSAY INFO: Whole-cell voltage clamp electrophysiology assay
# ASSAY SETUP: cells stably expressing the voltage-gated sodium channel of interest
Kindly provide the numeric value in nM only, without the unit symbol.

MOLECULE | UNITS OF MEASURE | EXPERIMENTAL VALUE
CN(CCC(F)(F)F)C(=O)c1ccc(C(=O)N[C@@H]2COc3cccc(-c4cnc(C5CC5)nc4)c3C2)cn1 [Example 198] | nM | 501
COc1ncc(-c2cccc3c2C[C@H](NC(=O)c2cnc(OC4CCOC4)nc2)CO3)cc1F (stereo partly shown) [Example 149] | nM | 6310
Cc1cc(-c2cccc3c2C[C@H](NC(=O)c2cnc(OC4CCCOC4)nc2)CO3)cnc1F (stereo partly shown) [Example 153] | nM | 631
O=C(N[C@@H]1COc2cccc(-c3ccncc3)c2C1)c1ccc(OC2CCCOC2)nc1 (stereo partly shown) [Example 136] | nM | 316
COc1ncc(-c2cccc3c2C[C@H](NC(=O)c2ccc(OC4CCC4)nc2)CO3)cc1F [Example 94] | nM | 794
COc1ncc(-c2cccc3c2C[C@H](NC(=O)c2ccc(COCC(F)(F)F)nc2)CO3)cn1 [Example 194] | nM | 200

In: Fill in: IC50 of Cc1nn(-c2ccccc2)nc1C(=O)N[C@@H]1CCc2cccc(-c3cnn(C)c3)c2C1 [Example 8] is ___
Out: 1580

In: Fill in: IC50 of COc1ccc(-c2cccc3c2C[C@H](NC(=O)c2ccc(OC4CCCOC4)nc2)CO3)cn1 (stereo partly shown) [Example 135] is ___
Out: 316

In: Fill in: IC50 of O=C(N[C@@H]1COc2cccc(-c3ccncc3)c2C1)c1ccc(OCC(F)F)nc1 [Example 26] is ___
Out: 631

In: Fill in: IC50 of O=C(N[C@@H]1COc2cccc(-c3cccnc3)c2C1)c1ccc2ccccc2n1 [Example 65] is ___
Out: 5010

In: Fill in: IC50 of O=C(N[C@@H]1COc2cccc(-c3ccncc3)c2C1)c1ccc(S(=O)(=O)C2CCCC2)nc1 [Example 117] is ___
Out: 501

In: Fill in: IC50 of O=C(N[C@@H]1CCc2cccc(-c3ccncc3)c2C1)c1ccc(OCCC(F)(F)F)nc1 [Example 13] is ___
Out: 39.8

In: Fill in: IC50 of O=C(N[C@@H]1COc2cccc(-c3ccc(CO)nc3)c2C1)c1ccc(OCCCF)nc1 [Example 211] is ___
Out: 200

###

# SUBJECT OF TEST: Nav1.7 voltage-gated sodium channel (Homo sapiens)
# Construct: Gene(s) encoding the full-length protein of the voltage-gated sodium channel of interest are cloned and expressed
# ASSAY INFO: Whole-cell voltage clamp electrophysiology assay
# ASSAY SETUP: cells stably expressing the voltage-gated sodium channel of interest
pIC50: −log10 of the molar value.
Tag: condition met if measured pIC50 is not below 6, condition not met if it is.

MOLECULE | ANSWER LABEL
O=C(N[C@@H]1CCc2cccc(-c3ccnnc3)c2C1)c1ccc(OCCC(F)(F)F)nc1 | condition met
O=C(N[C@@H]1COc2cccc(-c3ccc(F)nc3)c2C1)c1ccc(OCCC(F)(F)F)nc1 | condition met

// switching to the query molecule
In: // inclusive: pIC50 at least 6? input: O=C(N[C@@H]1COc2cccc(-c3ccncc3)c2C1)c1ccc(OCC2CCO2)nc1 (some centres unmarked)
Out: condition not met

###

# SUBJECT OF TEST: Nav1.7 voltage-gated sodium channel (Homo sapiens)
# Construct: Gene(s) encoding the full-length protein of the voltage-gated sodium channel of interest are cloned and expressed
# ASSAY INFO: Whole-cell voltage clamp electrophysiology assay
# ASSAY SETUP: cells stably expressing the voltage-gated sodium channel of interest
Lab note: anything with IC50 below 400 nM is marked true; values at 400 nM or higher are marked false.

Would you please look over these solved cases?
MOLECULE | ANSWER LABEL
O=C(N[C@@H]1CCc2cccc(-c3cccnc3F)c2C1)c1ccc(OCC2COCCO2)nc1 (some centres unmarked) | false
O=C(N[C@@H]1COc2cccc(-c3cccnc3)c2C1)c1cnc(OCCC(F)(F)F)cn1 | false
COc1ncccc1-c1cccc2c1C[C@H](NC(=O)c1ccc(OC(C)C)nc1)CO2 | false

In: Identify whether the molecule O=C(N[C@@H]1COc2cccc(-c3ccncc3)c2C1)c1ccc(Cl)nc1 records IC50 below 400 nM.
Out: false

In: Identify whether the molecule CC(C)Oc1ccc(C(=O)N[C@@H]2COc3cccc(-c4cncnc4)c3C2)cn1 records IC50 below 400 nM.
Out: true

In: Identify whether the molecule O=C(N[C@@H]1CCc2cccc(-c3ccncc3)c2C1)c1ccc(OC2CCCC2)nc1 records IC50 below 400 nM.
Out: true

In: Identify whether the molecule COCCOc1ccc(C(=O)N[C@@H]2COc3cccc(-c4cnc(C)nc4)c3C2)cn1 records IC50 below 400 nM.
Out: false

###

# SUBJECT OF TEST: Nav1.7 voltage-gated sodium channel (Homo sapiens, UniProt Q15858)
# Construct: Gene(s) encoding the full-length protein of the voltage-gated sodium channel of interest are cloned and expressed
# ASSAY INFO: Whole-cell voltage clamp electrophysiology assay
# ASSAY SETUP: cells stably expressing the voltage-gated sodium channel of interest
ENDPOINT: log10 IC50 (log10 of the value in µM)
Field: value | Transform: log10 | Quantity: IC50 | Unit: µM

Below: 5 compounds and their reported log10 IC50.
COMPOUND | log10 IC50
CCCCS(=O)(=O)c1ccc(C(=O)N[C@@H]2COc3cccc(-c4ccncc4)c3C2)cn1 [Example 34] | -0.20
Cn1cc(-c2cccc3c2C[C@H](NC(=O)c2ccc(OS(=O)(=O)C(F)(F)F)cc2)CC3)cn1 [Example 7] | -0.70
COc1ncc(-c2cccc3c2C[C@H](NC(=O)c2ccc(C(=O)NCCC(F)(F)F)nc2)CC3)cn1 [Example 167] | -0.40
O=C(N[C@@H]1COc2cccc(-c3ccnnc3)c2C1)c1ccc(OCCC(F)(F)F)nc1 [Example 81] | -0.40
COc1ncc(-c2cccc3c2C[C@H](NC(=O)c2ccc(C(=O)NCCC(F)(F)F)nc2)CO3)cc1F [Example 179] | -0.70

In: Checklist item: log10 IC50 tested on Nav1.7 voltage-gated sodium channel (Homo sapiens, UniProt Q15858), entry Cc1ncc(-c2cccc3c2C[C@H](NC(=O)c2ccc(C(=O)NCCC(F)(F)F)nc2)CO3)cn1 [Example 183] , value?
Out: -0.50

In: Checklist item: log10 IC50 tested on Nav1.7 voltage-gated sodium channel (Homo sapiens, UniProt Q15858), entry CN(C)C(=O)c1ncc(-c2cccc3c2C[C@H](NC(=O)c2ccc(OCCOCC(F)(F)F)nc2)CO3)cn1 [Example 209] , value?
Out: 0.90

In: Checklist item: log10 IC50 tested on Nav1.7 voltage-gated sodium channel (Homo sapiens, UniProt Q15858), entry CC(C)Oc1ccc(C(=O)N[C@@H]2CCc3cccc(-c4cccnc4F)c3C2)cn1 [Example 74] , value?
Out: -0.60
